assay: NCI Yeast Anticancer Drug Screen. Data for the mlh1 rad18 strain (AID 175); conditions: S. cerevisiae mlh1 rad18 strain growth inhibition; at 50.0 µM (retest, dose inferred, filed as 5.0)
This is part of a sample that, as a whole, favours compounds with a hit. Of some 79,000 tested, about 15% had one in any assay. Calls of active or inactive are those of the source. Rule as the data show it: active = growth inhibition above about 70%; inactive = the rest.
Outcome codes: yes (active), no (inactive)

| Molecule | Group |
| --- | --- |
| CCOC(=O)C1CSC(c2c(CO)cnc(C)c2O)N1 (stereo not drawn) | no |
| CCc1ccc(CC(=O)O)c2ccc3c(C)ccc(C)c3c12 | yes |
| O=C(/C=C(/Nc1ccccc1)C(=O)c1ccccc1)c1ccccc1 | yes |
| Oc1ccc2c(c1)Cc1cc(Br)ccc1-2 | yes |
| ClC(Cl)(Cl)C(NCCN1CCOCC1)c1ccccc1 (stereo not drawn) | yes |
| O=NNc1ncc(Sc2ccccc2)nc1Sc1ccccc1 | no |
| COc1ccccc1C(=O)c1c(C(=O)O)ccc2ccccc12 | no |
| O=C(NCc1ccccc1)C1C(=O)N(Cc2ccccc2)C(=O)/C1=N/O (stereo not drawn) | no |
| O=C(NCCNCCNCCNC(=O)c1cc(-c2ccccc2)nc2ccccc12)c1cc(-c2ccccc2)nc2ccccc12 | yes |
| COc1ccc(/C(=C/CN2CCC3CCC(C3)C2)c2ccccc2)cc1 (stereo not drawn) | no |
| CC(C)c1cccc2sc(NC(=O)C(=O)C(C#N)c3cccc4ccccc34)nc12 (stereo not drawn) | no |
| Fc1cccc(CSc2ncnc3c2ncn3C2CCCS2)c1 (stereo not drawn) | yes |
| O=C(O)C1C(C(=O)Nc2ccc3c(c2)Cc2ccccc2-3)C2(Cl)C(Cl)=C(Cl)C1(Cl)C2(Cl)Cl (stereo not drawn) | yes |
| O=NNc1nc(-c2ccccn2)nc2ccccc12 | yes |
| O=c1oc(-c2ccccc2Br)ns1 | yes |
| CCC(c1ccc(Cl)cc1)C(C#N)c1ccccc1 (stereo not drawn) | no |
| CCOC(=O)C1SC(=S)N(C)C1=O (stereo not drawn) | yes |
| CCC(C)SSc1ccccc1C(=O)Nc1ccc(Cl)cc1 (stereo not drawn) | yes |
| CCCCC1=NCCc2c1cc1c([nH]c3ccccc31)c2C | yes |
| O=C1C(c2ccccc2)CS(=O)(=O)CC1c1ccccc1 (stereo not drawn) | no |
| O=C(/C=C(/c1ccccc1)P(=O)(c1ccccc1)c1ccccc1)c1ccccc1 | yes |
| CCCCCCCCCCCCNCc1ccc(Cl)c(Cl)c1 | yes |
| Cc1cc(C(=O)c2ccccc2)ccc1O | no |
| O=C1Nc2ccc([N+](=O)[O-])c3c([N+](=O)[O-])ccc1c23 | yes |
| COc1ccc(C2=CCC3C4CC=C5CC(O)CCC5(C)C4CCC23C)s1 (stereo not drawn) | yes |
| Cc1cc(NCCCN(C)C)c2cc3ccc4cccc5ccc(c2n1)c3c45 | no |
| Nc1ccc2nnnn2c1 | yes |
| CC1(C)CCC[C@@]2(C)C1CC[C@@]1(CO1)[C@@H]2/C=C\C(C=O)CC=O (stereo partly drawn) | yes |
| CC(=O)Oc1ccc(/C=C/c2ccncc2)cc1 | no |
| COc1cc2c(cc1OC)-c1nc(Nc3ccccc3)sc1CC2 | yes |
| Cc1cccc(NC(=O)CCc2ccc(Cl)cc2)n1 | no |
| CCCCCCCCCCCC(=O)OCC(C)C | no |
| NC(CSSCC(N)C(=O)Nc1ccc2ccccc2c1)C(=O)Nc1ccc2ccccc2c1 (stereo not drawn) | yes |
| CCC(CC)COC(=O)c1cccnc1 | yes |
| Cc1cccc(NC(=O)Oc2ccc(Cl)c3cccnc23)c1 | yes |
| COc1cccc2c1S(=O)(=O)C(c1ccccc1)=CC2=O | yes |
| C=C1C(=O)OC2CC(C)C3C=CC(=O)C3CC12 (stereo not drawn) | no |
| S=C(NCc1ccccc1)N/N=C/c1ccccn1 | no |
| Nc1ccc2c(c1)CN1C(=O)c3ccccc3C1=N2 | no |
| COc1cc2c(oc(=O)c3cc(C)cc(OC)c32)c2c(C3OC(C)C(O)C(C)(O)C3O)ccc(O)c12 (stereo not drawn) | yes |
| OC1C2CCC1C1C3C=CC(C3)C21 (stereo not drawn) | yes |
| CCOC(=O)C(=Cc1ccccc1Br)C(=O)OCC | yes |
| O=C(O)CC(C(=O)O)C(c1cccc2ccccc12)c1cccc2ccc3ccccc3c12 (stereo not drawn) | yes |
| [Cu+2].c1ccc2n[nH]nc2c1 | yes |
| CCOC(=O)C1(Br)CCN(S(=O)(=O)c2ccc(C)cc2)c2ccccc2C1=O (stereo not drawn) | yes |
| CCNCC(O)COc1ccc2c(c1)[n+]([O-])nc(N)[n+]2[O-] (stereo not drawn) | yes |
| CCN(CC)c1c(C(=O)/C=C/c2ccc(Cl)cc2)c(-c2ccccc2)nn(C)c1=O | yes |
| O=C1CCCC2c3ccccc3NC12 (stereo not drawn) | no |

Reference for the values: PubChem BioAssay (NCI)
